Please provide measured TRAIL fold change cf wt for the entries that follow.
target: T1, TRAIL (human, UniProt P50591 114-281); assay: ELISA on coated TRAIL, Fc-linked dimers; EC50 ratio to OPG(22-194).Fc wt; reduction in binding (higher EC50)
T1 construct: also called TNF-related apoptosis inducing ligand; recombinant human TRAIL (R&D Systems)
T1 sequence (P50591 114-281 limits assumed): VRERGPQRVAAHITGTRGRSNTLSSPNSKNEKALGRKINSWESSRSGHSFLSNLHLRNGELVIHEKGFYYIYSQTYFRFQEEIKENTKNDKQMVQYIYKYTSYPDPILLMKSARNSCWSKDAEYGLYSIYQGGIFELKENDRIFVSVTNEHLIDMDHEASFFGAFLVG
Numbers only, in fold.

binder	TRAIL fold change cf wt [fold]
OVP I115M, F128A (Fc fusion, Tested as C-terminal Fc-linked dimer with FLAG tag, from HEK 293 EBNA cells; signal peptide 1-21 processed; also called I115M plus: F128A; not shown: human Fc domain of vector pAPEX-3.Fc; C-terminal FLAG tag) ETFPPKYLHYDEETSHQLLCDKCPPGTYLKQHCTAKWKTVCAPCPDHYYTDSWHTSDECLYCSPVCKELQYVKQECNRTHNRVCECKEGRYLEMEFCLKHRSCPPGAGVVQAGTPERNTVCKRCPDGFFSNETSSKAPCRKHTNCSVFGLLLTQKGNATHDNICSGNSESTQK	2

Turning now to a further record.
Form: binder = OVP I115M, R122D (Fc fusion, Tested as C-terminal Fc-linked dimer with FLAG tag, from HEK 293 EBNA cells; signal peptide 1-21 processed; also called I115M plus: R122D; not shown: human Fc domain of vector pAPEX-3.Fc; C-terminal FLAG tag) ETFPPKYLHYDEETSHQLLCDKCPPGTYLKQHCTAKWKTVCAPCPDHYYTDSWHTSDECLYCSPVCKELQYVKQECNRTHNRVCECKEGRYLEMEFCLKHDSCPPGFGVVQAGTPERNTVCKRCPDGFFSNETSSKAPCRKHTNCSVFGLLLTQKGNATHDNICSGNSESTQK ; TRAIL fold change cf wt = 23
